pIC50: −log10 of the molar value.
A short record of pIC50 observed with FAK kinase (catalytic construct FAK(410-689)) (Homo sapiens (Human), UniProt Q05397) follows.
Sequence (Q05397 410-689): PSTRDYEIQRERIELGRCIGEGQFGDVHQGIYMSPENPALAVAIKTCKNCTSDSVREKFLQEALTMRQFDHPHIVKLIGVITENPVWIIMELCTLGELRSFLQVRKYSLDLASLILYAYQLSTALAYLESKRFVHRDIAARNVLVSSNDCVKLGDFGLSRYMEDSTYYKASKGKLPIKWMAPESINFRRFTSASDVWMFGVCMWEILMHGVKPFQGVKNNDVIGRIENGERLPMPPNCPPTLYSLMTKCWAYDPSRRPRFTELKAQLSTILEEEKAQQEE
Readout name: pIC50

compound="CN(c1cccc(CNc2nc(Nc3cc(C(N)=O)ccc3F)ncc2C(F)(F)F)c1)S(C)(=O)=O [Compound 374]" readout_name=pIC50 observed_result=7.81
compound="CN(C)C(=O)c1ccc(Nc2ncc(C(F)(F)F)c(NCc3ccccc3NS(C)(=O)=O)n2)cc1 [Compound 225]" readout_name=pIC50 observed_result=9.01
compound="CN(c1ncccc1CNc1nc(Nc2cccc(CNC(N)=O)c2)ncc1C(F)(F)F)S(C)(=O)=O [Compound 222]" readout_name=pIC50 observed_result=9.22
compound="CCCN(CCO)C(=O)c1cccc(Nc2ncc(C(F)(F)F)c(NCc3cccnc3N(C)S(C)(=O)=O)n2)c1 [Compound 193]" readout_name=pIC50 observed_result=8.96
compound="CN(c1ncccc1CNc1nc(Nc2ccc(C(=O)NCC(C)(C)CO)cc2)ncc1C(F)(F)F)S(C)(=O)=O [Compound 256]" readout_name=pIC50 observed_result=8.80
compound="CN(CC1CC1)C(=O)c1ccc(Nc2ncc(C(F)(F)F)c(NCc3cccnc3N(C)S(C)(=O)=O)n2)cc1 [Compound 243]" readout_name=pIC50 observed_result=8.68
compound="CN(c1ncccc1CNc1nc(Nc2ccc(CNS(C)(=O)=O)cc2)ncc1C(F)(F)F)S(C)(=O)=O [Compound 30]" readout_name=pIC50 observed_result=9.14

---

Target: FAK kinase (catalytic construct FAK(410-689)) (Homo sapiens (Human), UniProt Q05397)
Lab note - cut at 0.8 nM for IC50: Y if strictly below, N if not.

compound=CN(C)C(=O)c1ccc(Nc2ncc(C(F)(F)F)c(NCc3cccc(N(C)S(C)(=O)=O)c3)n2)cc1 label=N
compound=CN(C)CCCNC(=O)c1ccc(Nc2ncc(C(F)(F)F)c(NCc3cccnc3N(C)S(C)(=O)=O)n2)cc1 label=N
compound=CN(c1ncccc1CNc1nc(NC2CCN(S(C)(=O)=O)CC2)ncc1C(F)(F)F)S(C)(=O)=O label=N
compound=CCNC(=O)c1ccc(Nc2ncc(C(F)(F)F)c(NCc3ccc(C)nc3N(C)S(C)(=O)=O)n2)cc1 label=Y
compound=CN(c1ncccc1CNc1nc(Nc2cccc(C(=O)N(CCO)CCO)c2)ncc1C(F)(F)F)S(C)(=O)=O label=Y
compound=Cc1cc(N(C)S(C)(=O)=O)c(CNc2nc(Nc3ccccc3)ncc2C(F)(F)F)cn1 label=Y
compound=CN(c1nccnc1CNc1nc(Nc2cccc(C(N)=O)c2)ncc1C(F)(F)F)S(C)(=O)=O label=N

---

Molecular target: FAK kinase (catalytic construct FAK(410-689)) (Homo sapiens (Human), UniProt Q05397)
Test: FAKcd kinase ELISA (inhibition of poly-glu-tyr phosphorylation by FAK(410-689))
Assay type: biochemical
Conditions: 50 μM final ATP
Where a name gives a salt, the structure may show the parent alone.
Readout name: IC50 (nM)

compound="CN(C)C(=O)CNC(=O)c1ccc(Nc2ncc(C(F)(F)F)c(NCc3cccnc3N(C)S(C)(=O)=O)n2)cc1 [Compound 259]" test_target="FAK kinase (catalytic construct FAK(410-689)) (Homo sapiens (Human), UniProt Q05397)" readout_name=IC50 readout_qualifier== observed_result=1.57
compound="CN(c1ncccc1CNc1nc(Nc2ccc(C(N)=O)cc2F)ncc1C(F)(F)F)S(C)(=O)=O [Example 14, formic acid salt]" test_target="FAK kinase (catalytic construct FAK(410-689)) (Homo sapiens (Human), UniProt Q05397)" readout_name=IC50 readout_qualifier=< observed_result=0.595
compound="CN(c1ncccc1CNc1nc(Nc2ccc(C(C)(C)O)cc2)ncc1C(F)(F)F)S(C)(=O)=O [Compound 323]" test_target="FAK kinase (catalytic construct FAK(410-689)) (Homo sapiens (Human), UniProt Q05397)" readout_name=IC50 readout_qualifier== observed_result=1.5
compound="COc1cccc(Nc2ncc(C(F)(F)F)c(NCc3cccnc3N(C)S(C)(=O)=O)n2)c1 [Compound 281]" test_target="FAK kinase (catalytic construct FAK(410-689)) (Homo sapiens (Human), UniProt Q05397)" readout_name=IC50 readout_qualifier== observed_result=0.6
compound="Cc1ccc(CNc2nc(Nc3ccc(C(N)=O)cc3)ncc2C(F)(F)F)c(NS(C)(=O)=O)c1 [Compound 112]" test_target="FAK kinase (catalytic construct FAK(410-689)) (Homo sapiens (Human), UniProt Q05397)" readout_name=IC50 readout_qualifier== observed_result=0.6
compound="COCCNC(=O)c1ccc(Nc2ncc(C(F)(F)F)c(NCc3cccnc3N(C)S(C)(=O)=O)n2)cc1 [Compound 276]" test_target="FAK kinase (catalytic construct FAK(410-689)) (Homo sapiens (Human), UniProt Q05397)" readout_name=IC50 readout_qualifier== observed_result=0.6
compound="CN(c1ncccc1CNc1nc(Nc2ccc(C(=O)NCc3ccccc3)cc2)ncc1C(F)(F)F)S(C)(=O)=O [Compound 271]" test_target="FAK kinase (catalytic construct FAK(410-689)) (Homo sapiens (Human), UniProt Q05397)" readout_name=IC50 readout_qualifier== observed_result=1.14
compound="CN(CCO)C(=O)c1cccc(Nc2ncc(C(F)(F)F)c(NCc3cccnc3N(C)S(C)(=O)=O)n2)c1 [Compound 115]" test_target="FAK kinase (catalytic construct FAK(410-689)) (Homo sapiens (Human), UniProt Q05397)" readout_name=IC50 readout_qualifier== observed_result=0.88
